Experiment: Cytotoxicity (resazurin) assay
No end group written: not given here.
# maps each entry to its CC50
experimental.readout: CC50

INSERT INTO assay_data (entry_sequence, val) VALUES
  ('HAHSGHGQSTQRGSRTAGR [FLG-22082-2100]', '> 12.9 µM'),
  ('GRRGGRGGRGRGR [GR13]', '> 23.6 µM'),
  ('SHHRHFRSHQCRR [LCE3C55-67]', '> 32 µg/mL'),
  ('SHHRHFRSHQCR [LCE3C55-66]', '> 32 µg/mL'),
  ('SHHRRRRSHCH [LCE1B78-88]', '> 32 µg/mL'),
  ('GRRGSGLGRSSSRGQRGSGSGR [HR 1-18 HR]', '> 32 µg/mL'),
  ('NHHRRHHRCR [LCE3D55-64]', '> 32 µg/mL');

---

Test: Hemolysis assay
Type: cell-based
Conditions: erythrocytes; read-out: Hemolysis (CC50)
Residues, ends and D or L forms follow the SMILES beside them.
experimental.readout: HC50

INSERT INTO assay_data (molecule, experimental_readout, val) VALUES
  ('CCCCCCCCCCCCCCCC(=O)N[C@@H](CCCNC(=N)N)C(=O)NCC(=O)N[C@@H](CO)C(=O)N[C@@H](CCCNC(=N)N)C(=O)N[C@@H](CO)C(=O)NCC(=O)N[C@@H](CCC(N)=O)C(=O)N[C@@H](CO)C(=O)N[C@@H](CO)C(=O)N[C@@H](CCCNC(=N)N)C(=O)NCC(=O)N[C@@H](CCC(=O)O)C(=O)N[C@@H](CCCNC(=N)N)C(=O)N[C@@H](CCCNC(=N)N)C(=O)O [Pal-HR 1-11 2H2R-14] (HELM PEPTIDE1{[CCCCCCCCCCCCCCCC(=O)[*:2]].R.G.S.R.S.G.Q.S.S.R.G.E.R.R}$$$$V2.0)', 'HC50', '> 300 µg/mL');

---

MBC100 overview
Test system: P. aeruginosa ATCC 10145
Assay: CFU-assay, P. aeruginosa-cidal activity
Type: cell-based, Pseudomonas aeruginosa
Conditions: pH 5.0, 0.25% glucose
No end group written: not given here. *: point of attachment. Biotin = O=C1N[C@H]2[C@H](CS[C@H]2CCCCC(=O)*)N1
experimental.readout: MBC100 (µg/mL)

INSERT INTO measurements (substance, system_under_test, experimental_readout, value_relation_sign, val) VALUES
  ('GRHGGGGGHGGGHGGHGGGGGR (Modified peptide derived from human hornerin (HR 1-18 L-G/Q-G/6S-6G))', 'P. aeruginosa ATCC 10145', 'MBC100', '=', 0.15),
  ('Biotin-GRHGSGLGHSSSHGQHGSGSGR [Biotin-HR 1-18]', 'P. aeruginosa ATCC 10145', 'MBC100', '>', 300),
  ('SLSSGHGSGHGHQRGGHRSGSG (Peptide with scrambled amino acid sequence of a 18 amino acid peptide derived from human hornerin (scrHR 1-18))', 'P. aeruginosa ATCC 10145', 'MBC100', '=', 0.075),
  ('LRHGSGLGHSSSHGQHGSGSGR (Modified peptide derived from human hornerin (HR 1-18 G2656L))', 'P. aeruginosa ATCC 10145', 'MBC100', '>', 300),
  ('GRRGGGGGRGGGRGGRGGGGGR (Modified peptide derived from human hornerin (HR 1-18 GR))', 'P. aeruginosa ATCC 10145', 'MBC100', '=', 0.075),
  ('GRHGSGLGHSSSHGQHGSGSGRSSSRGPY (Peptide derived from human hornerin (HR 1-17))', 'P. aeruginosa ATCC 10145', 'MBC100', '=', 0.15),
  ('GRGGSGLGGSSSGGQGGSGSGRSSSRGPY (Modified peptide derived from human hornerin (HR 1-17 4H-4G all H vs G))', 'P. aeruginosa ATCC 10145', 'MBC100', '>', 300);

---

Assay: Hemolysis assay
Assay type: cell-based
Method: For the hemolysis assays EDTA-blood was centrifuged at 800×g for 10 min, and the plasma and buffy coat were removed. The erythrocytes were washed three times and resuspended in 5% PBS, pH 7.4. […] The absorbance of hemoglobin release was measured at 540 nm and is expressed as % of Triton X-100-induced hemolysis. These values of triplicates were plotted with Graph Pad Prism 4 as a dose response curve and the CC50 was determined.
Residues, ends and D or L forms follow the SMILES beside them.
experimental.readout: CC50

INSERT INTO measurements (compound, val) VALUES
  ('N=C(N)NCCC[C@H](NC(=O)[C@H](CCCNC(=N)N)NC(=O)[C@H](CS)NC(=O)[C@H](CCCNC(=N)N)NC(=O)[C@H](Cc1c[nH]cn1)NC(=O)[C@H](CO)NC(=O)[C@H](CCCNC(=N)N)NC(=O)[C@H](CS)NC(=O)[C@H](CS)NC(=O)[C@H](CCCNC(=N)N)NC(=O)[C@H](Cc1c[nH]cn1)NC(=O)[C@H](Cc1c[nH]cn1)NC(=O)[C@@H](N)CO)C(=O)O [LCE3B56-68] (H-SHHRCCRSHRCRR-OH; N-terminus and C-terminus assumed)', '> 300 µg/mL'),
  ('CCCCCCCCCCCCCCCC(=O)N[C@@H](CO)C(=O)N[C@@H](Cc1c[nH]cn1)C(=O)N[C@@H](Cc1c[nH]cn1)C(=O)N[C@@H](CCCNC(=N)N)C(=O)N[C@@H](CS)C(=O)N[C@@H](CS)C(=O)N[C@@H](CCCNC(=N)N)C(=O)N[C@@H](CO)C(=O)N[C@@H](Cc1c[nH]cn1)C(=O)N[C@@H](CCCNC(=N)N)C(=O)N[C@@H](CS)C(=O)N[C@@H](CCCNC(=N)N)C(=O)N[C@@H](CCCNC(=N)N)C(=O)O [Pal-LCE3B56-68] (HELM PEPTIDE1{[CCCCCCCCCCCCCCCC(=O)[*:2]].S.H.H.R.C.C.R.S.H.R.C.R.R}$$$$V2.0)', '> 100 µg/mL'),
  ('CCCCCCCCCCCCCCCC(=O)NCC(=O)N[C@@H](CCN)C(=O)NCC(=O)N[C@@H](CCN)C(=O)O [Pal-GDab4, Pal-GDabGDab] (HELM PEPTIDE1{[CCCCCCCCCCCCCCCC(=O)[*:2]].G.[Dab].G.[Dab]}$$$$V2.0)', '> 100 µg/mL');

---

Assay: Cytotoxicity (resazurin) assay
No end group written: not given here.
Below, each of the sequences is paired with its reported CC50 value.
experimental.readout: CC50

INSERT INTO results (entry_sequence, val) VALUES
  ('SHHRPRLFHRRRH [LCE2B74-86]', '> 32 µg/mL'),
  ('GRRGSGLGRSSSRGGRGSGSGR [HR 1-18 4H-4R]', '> 15.2 µM'),
  ('SHHRPRLFHRHRH [LCE2A70-82]', '> 32 µg/mL');

---

Test system: erythrocytes
Assay: Hemolysis assay
Format: cell-based
Non-standard residues stand in square brackets, D forms with d. Residues, ends and D or L forms follow the SMILES beside them. *: point of attachment. Palmitoyl = CCCCCCCCCCCCCCCC(=O)*; Dap = NC[C@H](N)C(=O)O
experimental.readout: hemolytic activity (in words)

INSERT INTO assay_data (molecule, val) VALUES
  ('CCCCCCCCCCCCCCCC(=O)NCC(=O)N[C@@H](CN)C(=O)NCC(=O)N[C@@H](CN)C(=O)O [Pal-GDap4, Pal-GDapGDap] (Palmitoyl-G[Dap]G[Dap]-OH)', 'low hemolytic activity'),
  ('CCCCCCCCCCCCCCCC(=O)NCC(=O)N[C@@H](CCCN)C(=O)N[C@@H](CCCN)C(=O)NCC(=O)NCC(=O)N[C@@H](CCCN)C(=O)NCC(=O)NCC(=O)N[C@@H](CCCN)C(=O)NCC(=O)N[C@@H](CCCN)C(=O)NCC(=O)N[C@@H](CCCN)C(=O)O [Pal-Orn-GR13, Pal-GOOGGOGGOGOGO] (HELM PEPTIDE1{[CCCCCCCCCCCCCCCC(=O)[*:2]].G.[Orn].[Orn].G.G.[Orn].G.G.[Orn].G.[Orn].G.[Orn]}$$$$V2.0)', 'low hemolytic activity'),
  ('CCCCCCCCCCCCCCCC(=O)NCC(=O)N[C@@H](CCCCN)C(=O)N[C@@H](CCCCN)C(=O)NCC(=O)NCC(=O)N[C@@H](CCCCN)C(=O)NCC(=O)NCC(=O)N[C@@H](CCCCN)C(=O)NCC(=O)N[C@@H](CCCCN)C(=O)NCC(=O)N[C@@H](CCCCN)C(=O)O [Pal-K-GR13] (HELM PEPTIDE1{[CCCCCCCCCCCCCCCC(=O)[*:2]].G.K.K.G.G.K.G.G.K.G.K.G.K}$$$$V2.0)', 'low hemolytic activity');
